Measurement description: Mycobacterium tuberculosis growth inhibition, primary screen (AID 1259343)
Details: at 10 µM, hits give high values
Hit rate of the full screen: of about 6,200 compounds, about 2,900 (47%) were called active. So high a share suggests a set chosen from earlier hits. This is one part of the list.
Hi there, I'd appreciate the recorded inhibition for every entry that follows.

Prompt: May I ask what inhibition has been recorded for Cc1cccc(NC(=O)c2n[nH]c([N+](=O)[O-])c2Br)c1C ?
Response: 86.8% (active)

Prompt: // query inhibition value for entry COC(=O)c1ccc(-c2noc(CN3CCCN(C(=O)c4ccco4)CC3)n2)cc1
Response: 84.3% (active)

Prompt: Consider the compound shown here: Cc1ccc(C2=CCN(C(=O)CNC(=O)C3CCCCC3)CC2)cc1 What is its recorded inhibition?
Response: 93.1% (active)

Prompt: Find the recorded inhibition belonging to Cc1ccc(-c2noc(-c3ccc(Br)o3)n2)cc1 and report it.
Response: 55.7% (active)

Prompt: Which inhibition value is on record for COC(=O)c1ccc(-c2noc(CN3CCC(C(O)c4cccs4)CC3)n2)cc1 (centres undefined) ?
Response: 16.3% (inactive)

Prompt: I would be grateful if you could share the reported inhibition for OCC1(Cc2ccccc2F)CCCN(c2noc(-c3ccccc3)n2)C1 (centres undefined) .
Response: 17.3% (inactive)

Prompt: Requested read-out: inhibition. Entry: C(=Nn1c(-c2ccccc2)csc1=NC1CCCCC1)c1ccccn1
Response: -31.1% (inactive)

Prompt: Find the recorded inhibition belonging to COc1ccc2cc(C=C3COc4ccccc4C3=O)ccc2c1 and report it.
Response: -0.42% (inactive)

Prompt: What does the record list as inhibition for CC(C)c1cc(CN(C)C(=O)CC23CC4CC(CC(C4)C2)C3)no1 ?
Response: 32.9% (inactive)

###

Measurement description: Mycobacterium tuberculosis growth inhibition, primary screen (AID 1259343)
Details: at 10 µM
Hit rate of the full screen: of about 6,200 compounds, about 2,900 (47%) were called active. Cut-off read from the data, not from the text of the source: active = inhibition above about 50%; inactive = the rest. So high a share suggests a set chosen from earlier hits. The list shows a part of the results.
Give one outcome, nothing more. List: yes (1) for active, no (0) for inactive

Prompt: # lookup: test call for C/C(=C/C(=O)NCCc1ccccc1F)CCc1ccccc1
Response: no (0)

Prompt: Called result for Oc1ccc(C=NNc2ncc(C(F)(F)F)cc2Cl)c(O)c1O
Response: no (0)

Prompt: Each compound tested received a call. Report the one for Nc1nc(-c2ccc3c(c2)OCO3)cs1 .
Response: no (0)

Prompt: Dear colleague, could you share the recorded outcome for COc1cccc(C=CC(=O)c2ccc(Cl)c(Cl)c2)c1OC when you have a moment?
Response: no (0)

Prompt: I'd appreciate the recorded outcome for CCC1CCc2nc(NC(=O)Cc3c(C)noc3C)sc2C1 (centres undefined) from this test.
Response: no (0)

Prompt: Lab log entry: Cc1ccc(C)c2[nH]c(=O)c(CCNC(=S)NCCc3ccccc3)cc12 — outcome as called in the assay?
Response: yes (1)

Prompt: Entry Cc1cc(NC(=O)CNCc2csc(-c3cnccn3)n2)ccc1Cl : call = ?
Response: yes (1)

Prompt: What was the test verdict on Cc1cc(=O)[nH]c(-n2nc(C)cc2NC(=O)c2ccc(C(F)(F)F)cc2)n1 ?
Response: yes (1)

Prompt: Outcome logged for CCS(=O)(=O)N1CCC(C(=O)Nc2nc(-c3ccc(Br)cc3)cs2)CC1 in this assay:
Response: no (0)

Prompt: Which outcome was entered for the compound Clc1cccc(N2CCN(c3nnnn3-c3ccccc3)CC2)c1 in this test?
Response: no (0)

Prompt: What is the recorded call for this compound in the test? Nc1nc(-c2cccs2)cs1
Response: yes (1)

Prompt: Write down the call the test reported for this compound. Item: CN(C)c1ccc(Nc2nc(-c3cccs3)cs2)cc1
Response: no (0)

Prompt: I would be grateful if you could indicate the recorded call for Cc1cc(NC(=O)c2cccc(C(F)(F)F)c2)n(-c2nc(C)c(C)c(=O)[nH]2)n1 .
Response: no (0)

Prompt: Entry CC1CCc2nc(NC(=O)Cc3c(F)cccc3Cl)sc2C1 (centres undefined) : call = ?
Response: yes (1)

Prompt: What call does the record list for O=S(=O)(Nc1cccc(C2OCC(COc3ccc(Cl)cc3)O2)c1)c1ccccc1 (centres undefined) ?
Response: no (0)

Prompt: Which outcome was entered for the compound CN(Cc1nc(COc2ccccc2)no1)CC1(c2ccccc2)CC1(C)C (centres undefined) in this test?
Response: no (0)

Prompt: Identify the outcome logged in this assay for the compound shown: C=CCN=c1scc(-c2ccc(OC(F)F)cc2)n1N=C(C)c1ccc2c(c1)OCCO2
Response: yes (1)

Prompt: Check the results log: what was the call for CC(C)CN1C(=O)C(=Cc2c(N3CCN(CCO)CC3)nc3ccccn3c2=O)SC1=S ?
Response: no (0)

Prompt: Hi, do you know how c1ccc(-c2ccc(C(c3ccccc3)n3ccnc3)cc2)cc1 (centres undefined) came out in this test?
Response: yes (1)

Prompt: Recorded call for Clc1cnc(NN=Cc2cccs2)c(Cl)c1 ?
Response: no (0)

Prompt: Just curious, what result did c1cc2c(c(-c3cccc4[nH]ccc34)c1)CCNC2 get here?
Response: yes (1)

Prompt: Given CC1CCc2nc(NC(=O)CSC(=S)N3CCCCC3C)sc2C1 (centres undefined) , state the outcome it received in this test.
Response: no (0)

Prompt: So what was the verdict on Cc1cc(=O)[nH]c(-n2nc(C)cc2NC(=O)c2cc(C(F)(F)F)cc(C(F)(F)F)c2)n1 in this test?
Response: yes (1)

Prompt: State the result this test recorded for NS(=O)(=O)c1ccc(N2CCN(c3cccc(Cl)c3)CC2)nc1 .
Response: yes (1)

Prompt: What outcome does the record of this test show for COc1ccc(/C=C/C(=O)c2cc(O)ccc2O)cc1 ?
Response: yes (1)

Prompt: What classification did O=C(Nc1ccc(Oc2ccccc2)nc1)C1CCN(C(=O)c2ccco2)CC1 end up with in this test?
Response: yes (1)

Prompt: Query: recorded result category for CC(C)(CNC(=O)Nc1nc2c(s1)CCCC2)c1cccs1 in this test
Response: no (0)

Prompt: Outcome? Cc1nc(-c2ccc(CCNC(=O)c3cc(F)cc(F)c3)s2)cs1
Response: no (0)

Prompt: Look up the recorded call for COC(=O)c1ccc(C=CC(=O)c2ccc(OC)cc2)cc1 in this test.
Response: no (0)

Prompt: For Cc1nc(Cl)sc1S(=O)(=O)NCC(C)c1ccccc1 (centres undefined) , what call appears in the results of this test?
Response: no (0)

Prompt: Which outcome did this test record for the compound C=CCN=c1scc(-c2ccc(OC(F)F)cc2)n1N=Cc1ccc2c(c1)OCO2 ?
Response: no (0)

Prompt: Can you look up the reported call for COc1cccc(C(C)N(C)Cc2nc(COc3ccccc3)no2)c1 (centres undefined) for me?
Response: yes (1)

Prompt: Could you kindly confirm the outcome this assay logged for CCc1ccc(-c2csc(N)n2)s1 ?
Response: yes (1)

Prompt: Hi team, can someone confirm the assay call for COc1ccc(C=CC(=O)c2ccc3ccccc3c2)cc1 ?
Response: yes (1)

Prompt: GET /call?item= C=CCN=c1scc(-c2ccccc2F)n1N=Cc1ccc2c(c1)OCCO2 returns the recorded outcome of this test.
Response: no (0)

Prompt: What call does the record list for Cc1[nH]n(-c2nc3ccccc3s2)c(=O)c1C=NC(C)c1ccccc1 (centres undefined) ?
Response: yes (1)

Prompt: Which outcome did this test record for the compound Clc1ccc(-c2csc(-c3cnccn3)n2)s1 ?
Response: no (0)

Prompt: // return assay outcome for CC(C)=CCCC(C)[C@@H]1CC[C@]2(C)C3=C(CC[C@@]12C)C1(C)CC[C@H](O)C(C)(C)C1CC3 (some centres undefined)
Response: no (0)

Prompt: Give the logged outcome of this assay for the following compound: FC(F)(F)c1cccc(Cc2noc(CN3CCC(OCc4ccccn4)CC3)n2)c1
Response: no (0)

###

Measurement description: Mycobacterium tuberculosis growth inhibition, primary screen (AID 1259343)
Details: at 10 µM, hits give high values
In all, about 6,200 compounds went through this assay and about 2,900 (47%) were called active. So high a share suggests a set chosen from earlier hits. This is one part of the list.
Label 1 when inhibition is at or above 70%; anything below gets -1.

Prompt: Kindly determine if inhibition recorded for CC(C)(C)c1ccc(OCCCC(=O)NCc2cn[nH]c2)cc1 is above or exactly 70%.
Response: 1

Prompt: // inclusive: inhibition at least 70%? input: Cc1ccc(C2=CC(c3ccc(Cl)cc3)n3nnnc3N2)cc1 (stereo unspecified)
Response: 1

Prompt: Decide: inhibition of O=C(Nc1ccc(Oc2ccccc2F)cc1)C1CCN(CCCn2cccn2)CC1 >= 70%?
Response: 1

Prompt: Answer whether inhibition of N#Cc1c(Cl)c(Cl)c(Cl)c(C#N)c1Cl is greater than or equal to 70%.
Response: 1

Prompt: inhibition >= 70% for O=C(Nc1ccc(-c2ccccc2)cc1)N[C@@H](Cc1ccccc1)C(=O)N1CCC(C(=O)N2CCCCC2)CC1 ?
Response: 1

Prompt: Textbook exercise: given the entry CC(=O)c1cc(Cl)ccc1OCC(=O)Nc1ccc(C)cc1Br , state whether its inhibition is greater than or equal to 70%.
Response: -1

Prompt: Would you say COc1ccc(-c2nc(CN3CCN(c4ccc(C)cc4C)CC3)c(C)o2)cc1 shows inhibition at minimum 70%?
Response: -1

Prompt: Would you say CCc1ncc(CN2CCC(C(=O)Nc3ccc(Oc4ccccc4F)cc3)CC2)cn1 shows inhibition at minimum 70%?
Response: 1

Prompt: Assess whether reported inhibition for c1cnc(Sc2ccc3ccccc3c2)nc1 sits at 70% or higher.
Response: -1

Prompt: // inclusive: inhibition at least 70%? input: COc1ccc(-c2nc(CN3CCN(c4nc5ccccc5s4)CC3)c(C)o2)c(OC)c1
Response: -1
